System: MS2 coat protein
PROCEDURE TEXT: apparent KD of MS2 coat protein; designed switch direction (-1 OFF switch, 1 ON switch): -1; higher = weaker reporter binding
CONDITION SUMMARY: input ligand: microRNA oligo, concentration not stated
Could you please report measured apparent KD of MS2 coat protein for the items listed next?
Answers are plain numbers, in nM.

{"SEQUENCE DATA": "UAUAUAUAGUAAGGAUAUGUAUAUAUUUUAUGAACAGAAGGUACUGACAUGAGGAUCACCCAUGUUUUAGUGUGGGCAUGUAGA [JMF's solution 70] (Eterna round: R96, puzzle: Exclusion NG 1)", "apparent KD of MS2 coat protein, nM": 38.8}
{"SEQUENCE DATA": "CUUAGUUGGUAAGGAUAUCCUACAUUAUUCUGACCCGUGCAAGCUACAUGAGGAUCACCCAUGUGGGAGAAGGUGCGUUAACGU [Design 7] (Eterna round: R96, puzzle: Exclusion NG 2)", "apparent KD of MS2 coat protein, nM": 42.1}
{"SEQUENCE DATA": "UGAUCAGACCGAGGAUAUAUAUGUAGGACCCACGUGAGUGGGUCCAGAACAUGAGGAUCACCCAUGUAGAAGGCGGUCUGAUCU [JL ENG2 1.88] (Eterna round: R96, puzzle: Exclusion NG 2)", "apparent KD of MS2 coat protein, nM": 11.5}
{"SEQUENCE DATA": "AUCUGUGAGCGAGGAUAUCUGCUGUUGUCGGUCGGAGAAGGCGCGGACAGAACAUGAGGAUCACCCAUGUGUAUGGGCGGCCUC [Isvetima] (Eterna round: R96, puzzle: Exclusion NG 1)", "apparent KD of MS2 coat protein, nM": 14.1}

Note: attention shifts to another entry.
Task: Tell me apparent KD of MS2 coat protein reported for UUAAAUCAUGUAGGAUAUGCGUGGCGAAGCUAUGCAGAAGGACAUGAGGAUCACCCAUGUUCUAGCGUCUGCGUACAGAUGCAA [JL ENG1 1.10] (Eterna round: R96, puzzle: Exclusion NG 1)
Output: 17.5

Reference source for all entries: the supplement of paper PMC9170038
